- System: A498 renal
- METHOD DESCRIPTION: NCI-60 one-dose screen, 48 h (100 = growth as untreated, 0 = no growth, -100 = all killed)
- CONDITION DETAILS: 10 µM
- Experimental: Growth inhibition of the A498 human tumor cell line is measured as a screen for anti-cancer activity. Cells are grown in 96 well plates and exposed to the test compound for 48 hours. Compounds are tested at a single concentration, which is 10^-5 M for most compounds. The reported endpoint is percent growth (GI% or GIPRCNT), where numbers from 0 - 100% represent growth inhibition, and numbers from -100% - 0 represent cell death. For example, a value of 40 represents 60% growth inhibition. […]
The panel holds about 83,000 compounds, 20% with a hit somewhere; the sample as a whole holds those more often.
EXPERIMENTAL READOUT: growth (%)
Give the value in % but do not write % after it.

Indicate its recorded growth; the compound in question is COc1cc(CN)ccc1O 128

Return growth (reported value) for this compound: O=C(CS)Nc1ccc2ccccc2c1 98.8

Supply recorded growth for Cc1ccc(CCCC(=O)O)c(C)c1 here. 101

Check the records and state growth for NC(=O)N/N=C\c1ccco1 117

Identify the reported growth for the following entry. c1ccc(CN2COc3c(ccc4c3OCN(Cc3ccccc3)C4)C2)cc1 51.6

Retrieve growth measured for O=c1[nH]nc(SC2CCCCC2)c(=O)[nH]1 and print it. 93.7

Give me measured growth, please, for this compound: C#C[C@H]1CCCCCC1O (some centres undefined) 99.3

Specify growth for CC(C)=CC(=O)OC(=O)C=C(C)C and stop. 124

Consider the compound O=C(O)C(c1ccccc1)C(O)c1ccccc1 (centres undefined) and give its recorded growth. 69.8

Determine from records and report growth for N#Cc1ccc(OC(=O)Nc2ccc(Cl)c(Cl)c2)cc1 106

Give the reported value of growth for this record: CCCCCCCCCCCCCC(=O)Oc1ccc[nH]c1=O 94.5

Determine its reported growth: Nc1ccc(NC(=O)c2cccc(N)c2)cc1 90.6

Respond only with growth recorded for N#CSc1cc(S(N)(=O)=O)ccc1N 118

// fetch growth given entry CC(=O)Nc1cccc(Cl)c1C 93.3

* * *

- Tested on: K-562 leukemia
- METHOD DESCRIPTION: NCI-60 one-dose screen, 48 h
- CONDITION DETAILS: 10 µM
The panel holds about 83,000 compounds, 20% with a hit somewhere; the sample as a whole holds those more often. The source made the active and inactive calls. How the source made its calls: active means growth percent below 10; inactive means the rest.
Use one of these outcomes when replying: active, inactive

Hello, I am checking results. What call was entered for CN(C)C(=O)Oc1cccc([N+](C)(C)C)c1 ? inactive

Call for entry CCOc1ccc(/C=C/C(=O)c2ccccc2)cc1 : inactive

What did the test return for CC[N+](C)(CC)CCO ? inactive

Tell me the assay call for O=C(Cc1nc2ccc([N+](=O)[O-])cc2nc1CC(=O)c1cccnc1)c1cccnc1 please. inactive

Recorded call for CC(=O)OC1CC2C(C)(C)OC3CC(=O)OCC32C2CCC3(C)C(=CCC3c3ccoc3)C12C (stereo not drawn) ? inactive

Kindly provide the recorded test outcome for the following compound: CCOC(=O)C(CCC(C)C)C(=O)OCC inactive

Field: outcome | Entry: O=C(O)CCC(=O)OC(C1CO1)C(OC(=O)CCC(=O)O)C1CO1 (stereo not drawn) inactive

Please let me know the test result on file for N#Cc1ccc(OC(=O)Nc2ccc(Cl)c(Cl)c2)cc1 . inactive

Write down the call the test reported for this compound. Item: CCN1C(=O)/C(=C/C=C/N(C)c2ccccc2)SC1=S inactive

Look up the recorded call for N#CCCN(CCCN1CCOCC1)CN1C(=O)c2ccccc2C1=O in this test. inactive

What classification did Cc1nc2ccccc2c2nnc(SCC(=O)N(Cc3ccccc3)c3ccccc3)n12 end up with in this test? inactive

Would you mind telling me which call this test gave O=C(O)c1ccccc1NCc1ccco1 ? inactive

Per the assay record, what outcome was assigned to O=c1[nH]nc(SC2CCCCC2)c(=O)[nH]1 ? inactive

Kindly provide the recorded test outcome for the following compound: N#CC1(Nc2ccc3c4c(cccc24)CC3)CCCCC1 inactive

Recorded call for CCC/C=C(\C)C(C)(C#N)C(=O)OCC (stereo not drawn) ? inactive

Look up the recorded call for COc1ccc(-c2cc(-c3cc(-c4ccc(OC)cc4)nc(N)n3)nc(N)n2)cc1 in this test. inactive

In this assay, the call recorded for COS(=O)(=O)c1ccc(Br)cc1 was what? inactive

Identify the outcome logged in this assay for the compound shown: C=CCc1cc(C(C)=O)cc(OC)c1O inactive

Can you look up the reported call for c1ccc(CN2COc3c(ccc4c3OCN(Cc3ccccc3)C4)C2)cc1 for me? active

Kindly provide the recorded test outcome for the following compound: CC1CCCC(CC(N)=O)CC1 (stereo not drawn) inactive

Recorded call for N=c1c(C(=O)OCc2ccccc2)ncc(CCl)n1O ? inactive

Test call, this compound: CCCCC1C(=O)N(c2ccccc2)N(c2ccccc2)C1=O inactive

Dear colleague, could you share the recorded outcome for CCOc1ccc2[nH]c(=S)sc2c1 when you have a moment? inactive

For Clc1ccc(-c2n[nH]c3c2Cc2ccccc2-3)cc1Cl , what call appears in the results of this test? inactive

How was CC(C)(N)COS(=O)(=O)O classified in this test? inactive

For CCCCCCCCCCC(C)Br (stereo not drawn) , what call appears in the results of this test? inactive

Hi, do you know how CC(=O)N(C)c1ccc([N+](=O)[O-])cc1 came out in this test? inactive

How did this test come out for C=CCOC(=O)C(=O)OCC=C ? inactive

What is the recorded call for this compound in the test? COc1nc(N)nc2c1ncn2C1OC(CO)CC1O (stereo not drawn) inactive

What call does the record list for O=C(CN1CCNCC1)N1CCOCC1 ? inactive

Returns: the outcome recorded for COc1ccccc1C1OC2=Nc3cc(C)c(C)cc3NC2C1=O (stereo not drawn) in this assay. inactive

What call does the record list for Cc1cc2ccccc2c(O)c1C#N ? inactive

Name the outcome recorded for O=C(Nc1cccc(NC(=O)Nc2cc(C(F)(F)F)ccc2Cl)c1)Nc1cc(C(F)(F)F)ccc1Cl in the assay. inactive

Identify the outcome logged in this assay for the compound shown: CCOC(=O)Nc1nn[nH]n1 inactive

// param item: CCOc1ccc(I)cc1 ; yields the recorded call inactive

Check the results log: what was the call for CCN=c1cc2sc3cc(NCC)c(C)cc3nc-2cc1C ? inactive

Query: recorded result category for C/C(O)=C(\C=N\C(N)=S)C(=O)Nc1ccccc1 in this test inactive

State the result this test recorded for O=C(O)CCCCNC(=O)c1ccccc1 . inactive

Each compound tested received a call. Report the one for COc1ccc(C2(O)CCCCC2)cc1 . inactive

Hi team, can someone confirm the assay call for O=C(O)C(O)c1ccccc1 (stereo not drawn) ? inactive

How was COc1ccc(C(=O)C(Br)C(Br)C(=O)O)cc1 (stereo not drawn) classified in this test? inactive

Please state the recorded outcome for this compound: O=C1OC(=O)C2C1C1(Cl)C(Cl)=C(Cl)C2(Cl)C2C(=O)OC(=O)C21 (stereo not drawn) inactive

# fetch the recorded call for C[C@]12CC[C@@H]3c4ccc(OCC(=O)O)cc4CC[C@H]3[C@@H]1CCC2=O here inactive

* * *

What growth was measured for each of the following?
- Tested on: MALME-3M melanoma
- METHOD DESCRIPTION: NCI-60 one-dose screen, 48 h (100 = growth as untreated, 0 = no growth, -100 = all killed)
- CONDITION DETAILS: 10 µM
Compounds without any hit were thinned out: in the full panel of roughly 83,000, 20% have a hit.
Report the value in % with no unit label.

Report value only: growth, MALME-3M melanoma, O=[N+]([O-])c1ccc(N=Nc2ccccc2)cc1 101

Report growth on MALME-3M melanoma for this entry: CC(=O)N(C)c1ccc([N+](=O)[O-])cc1 144

State growth (MALME-3M melanoma) of CC1CCCC(CC(N)=O)CC1 (centres undefined) . 107

Under MALME-3M melanoma: report growth of CCOc1ccc(I)cc1 . 108

Specify the recorded growth for Clc1ccc(-c2n[nH]c3c2Cc2ccccc2-3)cc1Cl , system: MALME-3M melanoma. 102

Please report the measured growth for c1ccc(Sc2ccccc2)cc1 tested on MALME-3M melanoma. 94.4

Provide growth, system MALME-3M melanoma, entry CC(=O)c1cc2c(cc1F)C(C)(C)CCC2(C)C 123

Look up and report measured growth (MALME-3M melanoma) for the following compound: O=[N+]([O-])c1ccccc1N=Nc1ccc(O)cc1O 109

Answer with growth of Nc1ccc(N=Nc2ccc(O)cc2)c(N)n1 measured for MALME-3M melanoma. 72

For MALME-3M melanoma, give the measured growth of the entry COc1cc2nc3cc([N+](=O)[O-])ccc3c(Cl)c2cc1OC 94.5

Provide measured growth on MALME-3M melanoma for C=CC(=O)OCCCCCCCC please. 108

Send back MALME-3M melanoma growth of Nc1ccc(NC(=O)c2cccc(N)c2)cc1 only. 85.7

Write down the reported growth (system: MALME-3M melanoma) of CN(C)C(C)(C)CC(C)(C)C 94.2

Give growth; test system MALME-3M melanoma; compound O=C1C[C@H](c2ccccc2)[C@H](c2ccccc2)C1 89.6
